Sequence of the target: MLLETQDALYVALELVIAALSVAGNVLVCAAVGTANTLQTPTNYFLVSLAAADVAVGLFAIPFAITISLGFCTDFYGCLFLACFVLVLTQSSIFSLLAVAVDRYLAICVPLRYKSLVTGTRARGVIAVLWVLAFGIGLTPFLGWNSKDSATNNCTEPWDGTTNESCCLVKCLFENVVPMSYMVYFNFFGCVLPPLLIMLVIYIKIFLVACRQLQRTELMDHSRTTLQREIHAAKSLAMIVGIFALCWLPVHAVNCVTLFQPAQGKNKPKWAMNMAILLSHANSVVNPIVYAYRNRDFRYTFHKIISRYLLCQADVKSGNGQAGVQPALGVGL
Field: Ki. System: the protein given by its sequence. Provenance: assorted publications.
readout name: Ki

INSERT INTO assay_data (compound, readout_name, result_value) VALUES
  ('CN(Cc1ccccc1)C(=O)COc1ccc(-c2cc3c([nH]2)c(=O)n(C)c(=O)n3C)cc1', 'Ki', '0.055 µM'),
  ('O=C(Nc1nc(-c2ccccc2)c(-c2nc3ccccc3c(=O)n2-c2ccccc2)s1)c1ccccc1', 'Ki', '> 0.1 µM'),
  ('CCCCn1c(=O)[nH]c2nc(-c3ccc(OCC(=O)N4CCN(c5ccccc5OC)CC4)cc3)[nH]c2c1=O', 'Ki', '0.0012 µM'),
  ('OC[C@@]12C[C@@H]1[C@@H](n1cnc3c(NCc4cccc(I)c4)ncnc31)[C@H](O)[C@@H]2O', 'Ki', '12.1 µM'),
  ('CCOC(=O)C1=C(C)Nc2nc3ccccc3n2C1c1cnco1 (racemic)', 'Ki', '0.508 µM');
